Entries annotated with measured hERG current change (%, negative = inhibition) at 10uM
biological target: human ether-à-go-go-related gene (hERG) potassium channel (human, UniProt Q12809); assay: primary screen, population patch clamp on CHO cells stably expressing hERG; higher = less effect of the substance;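 also: peak tail current of the secondary pulse compared with the same well before compound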
Sequence (Q12809 whole entry, looked up): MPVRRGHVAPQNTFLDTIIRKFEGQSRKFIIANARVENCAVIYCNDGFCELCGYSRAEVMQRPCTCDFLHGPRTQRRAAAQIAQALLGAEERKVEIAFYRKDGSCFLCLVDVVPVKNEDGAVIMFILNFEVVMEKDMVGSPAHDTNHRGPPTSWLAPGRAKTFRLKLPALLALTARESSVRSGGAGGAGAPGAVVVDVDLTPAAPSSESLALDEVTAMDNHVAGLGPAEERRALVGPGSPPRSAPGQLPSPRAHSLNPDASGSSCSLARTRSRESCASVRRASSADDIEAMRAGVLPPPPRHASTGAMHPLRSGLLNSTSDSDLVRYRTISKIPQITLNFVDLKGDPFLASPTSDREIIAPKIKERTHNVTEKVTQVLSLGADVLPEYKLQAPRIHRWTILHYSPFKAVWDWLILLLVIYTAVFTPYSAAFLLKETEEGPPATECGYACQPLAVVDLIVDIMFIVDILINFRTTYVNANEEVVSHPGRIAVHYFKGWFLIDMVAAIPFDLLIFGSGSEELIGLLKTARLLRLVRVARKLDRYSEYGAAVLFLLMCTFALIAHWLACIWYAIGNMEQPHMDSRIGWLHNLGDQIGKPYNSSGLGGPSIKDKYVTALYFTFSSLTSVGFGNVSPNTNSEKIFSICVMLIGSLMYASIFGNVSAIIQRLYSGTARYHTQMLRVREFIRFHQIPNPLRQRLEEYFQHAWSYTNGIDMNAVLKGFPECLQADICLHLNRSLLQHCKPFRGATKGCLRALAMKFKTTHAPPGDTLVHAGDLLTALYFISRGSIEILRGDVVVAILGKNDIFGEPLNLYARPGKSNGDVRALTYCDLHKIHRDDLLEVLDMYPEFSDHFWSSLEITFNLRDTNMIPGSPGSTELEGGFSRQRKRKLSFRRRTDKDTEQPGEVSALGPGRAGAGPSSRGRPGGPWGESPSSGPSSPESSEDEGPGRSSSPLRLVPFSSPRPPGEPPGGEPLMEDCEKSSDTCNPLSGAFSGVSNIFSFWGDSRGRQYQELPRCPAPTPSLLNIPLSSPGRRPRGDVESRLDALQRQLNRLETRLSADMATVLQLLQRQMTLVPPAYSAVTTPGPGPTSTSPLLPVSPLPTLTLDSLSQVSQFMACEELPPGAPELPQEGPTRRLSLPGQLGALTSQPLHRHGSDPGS
In all, about 310,000 compounds went through this assay and about 14,000 (4.5%) showed an effect of 50% or more. The effect is printed as a negative number. The list comes from a sample in which strong results are over-represented; it also holds close analogues and randomly drawn compounds.
reported-property: hERG current change (%, negative = inhibition) at 10uM (%)

> print(dat)
                                    compound                               system.name  obs.value
 1  COc1ccccc1NC(=O)c1ccc(Br)c(S(=O)(=O)N2CCCC2)c1  human ether-à-go-go-related gene (hERG) potassium channel (human, UniProt Q12809)      -2.36
 2  NC(=O)CSc1nnc(NC(=O)C2CC(=O)N(c3ccc(F)cc3)C2)s1 (stereo not shown)  human ether-à-go-go-related gene (hERG) potassium channel (human, UniProt Q12809)       26.1
 3  CC1Cc2cc(S(=O)(=O)NCCc3ccccc3)ccc2N1C(=O)C1CC1 (stereo not shown)  human ether-à-go-go-related gene (hERG) potassium channel (human, UniProt Q12809)       13.7
 4  CC(C)CCN1CCN(Cc2cccs2)CC1CCO (stereo not shown)  human ether-à-go-go-related gene (hERG) potassium channel (human, UniProt Q12809)      -10.7
 5  COc1cccc(C(=O)NC(=S)N2CCN(c3ccc(C(F)(F)F)cc3[N+](=O)[O-])CC2)c1  human ether-à-go-go-related gene (hERG) potassium channel (human, UniProt Q12809)        1.6
 6  CCCCN(CCCC)CCCN1CC(=O)N2[C@@H](Cc3c([nH]c4ccccc34)C2(C)C)C1=O  human ether-à-go-go-related gene (hERG) potassium channel (human, UniProt Q12809)      -73.2
 7  Brc1cc2c(cc1/C=N/Nc1nc(N3CCCC3)nc(N3CCOCC3)n1)OCO2  human ether-à-go-go-related gene (hERG) potassium channel (human, UniProt Q12809)      -51.3
 8  Cn1c(=O)cc(OCCCC(=O)N2CCN(c3ccccc3)CC2)c2ccccc21  human ether-à-go-go-related gene (hERG) potassium channel (human, UniProt Q12809)      -47.3
 9  Brc1cc2c(cc1/C=N/Nc1nc(N3CCOCC3)nc(N3CCOCC3)n1)OCO2  human ether-à-go-go-related gene (hERG) potassium channel (human, UniProt Q12809)         -5
10       COc1cccc(N2CCN(C(=O)c3cccnc3)CC2)c1  human ether-à-go-go-related gene (hERG) potassium channel (human, UniProt Q12809)       11.2
11       CC(C)NC(=O)c1ccc(S(=O)(=O)N(C)C)cc1  human ether-à-go-go-related gene (hERG) potassium channel (human, UniProt Q12809)     0.0301
12  O=C(c1cccc(Br)c1)N1CCN(C2=NS(=O)(=O)c3ccccc32)CC1  human ether-à-go-go-related gene (hERG) potassium channel (human, UniProt Q12809)      -65.8
13  COc1ccc(N2CCN(C(=O)c3ccc(C)cc3)CC2)c([N+](=O)[O-])c1  human ether-à-go-go-related gene (hERG) potassium channel (human, UniProt Q12809)      -62.9
14  C=CCSc1nc2c(c(=O)[nH]1)C(C(C)C)C(C#N)=C(N)O2 (stereo not shown)  human ether-à-go-go-related gene (hERG) potassium channel (human, UniProt Q12809)       3.05
15  OCCC1CN(CC(c2ccccc2)c2ccccc2)CCN1C1CCCC1 (stereo not shown)  human ether-à-go-go-related gene (hERG) potassium channel (human, UniProt Q12809)      -71.2
16  O=C(c1ccc([N+](=O)[O-])cc1)N1CCN(C(=O)c2cccnc2)CC1  human ether-à-go-go-related gene (hERG) potassium channel (human, UniProt Q12809)      -15.7
17  COc1cccc(CNC(=O)C2=C(C)C(=O)OC23CCC(C)CC3)c1 (stereo not shown)  human ether-à-go-go-related gene (hERG) potassium channel (human, UniProt Q12809)      -5.65
18  CC(C)CCN1CCN(C/C=C/c2ccco2)CC1CCO (stereo not shown)  human ether-à-go-go-related gene (hERG) potassium channel (human, UniProt Q12809)      -57.1
19       COC(=O)c1ccc(NC(=S)Nc2cccc(C)n2)cc1  human ether-à-go-go-related gene (hERG) potassium channel (human, UniProt Q12809)      -0.48
20  Cc1ccc(Sc2nc3c(c(=O)[nH]c(=O)n3C)n2CCc2ccccc2)cc1  human ether-à-go-go-related gene (hERG) potassium channel (human, UniProt Q12809)       5.16
21  COc1ccc(C(=O)OCCN2CCN(C3=NS(=O)(=O)c4ccccc43)CC2)cc1OC  human ether-à-go-go-related gene (hERG) potassium channel (human, UniProt Q12809)      -32.9
22     Cc1cc(NC(=O)COc2ccccc2)n(-c2ccccc2)n1  human ether-à-go-go-related gene (hERG) potassium channel (human, UniProt Q12809)      -22.7
23  COc1cccc(C(=O)/C=C/c2ccc(N3CCCCC3)c([N+](=O)[O-])c2)c1  human ether-à-go-go-related gene (hERG) potassium channel (human, UniProt Q12809)      -3.01
24         O=C(c1cccnc1)N1CCN(c2ccccc2Cl)CC1  human ether-à-go-go-related gene (hERG) potassium channel (human, UniProt Q12809)      -18.5
25    O=C(CSc1nc(C2CCCCC2)nc2ccccc12)N1CCCC1  human ether-à-go-go-related gene (hERG) potassium channel (human, UniProt Q12809)      -12.6
26  O=C(c1cccnc1)N1CCN(c2ccc([N+](=O)[O-])cc2Cl)CC1  human ether-à-go-go-related gene (hERG) potassium channel (human, UniProt Q12809)        -65
27  CC(C)CCN1CCN(CC(c2ccccc2)c2ccccc2)CC1CCO (stereo not shown)  human ether-à-go-go-related gene (hERG) potassium channel (human, UniProt Q12809)      -82.3
28  OCCC1CN(C/C=C/c2ccco2)CCN1Cc1ccccc1 (stereo not shown)  human ether-à-go-go-related gene (hERG) potassium channel (human, UniProt Q12809)      -8.57
29  Clc1ccccc1/C=C/C=N/Nc1nc(N2CCOCC2)nc(N2CCOCC2)n1  human ether-à-go-go-related gene (hERG) potassium channel (human, UniProt Q12809)      -58.4
30                CC(=O)Nc1c(O)nc(C)[nH]c1=O  human ether-à-go-go-related gene (hERG) potassium channel (human, UniProt Q12809)       6.51
31  Cc1ccc(C)c(N2CCN(C(=O)c3ccc(N4CCOCC4)c([N+](=O)[O-])c3)CC2)c1  human ether-à-go-go-related gene (hERG) potassium channel (human, UniProt Q12809)      -21.2
32         CNC(=O)c1cc(S(=O)(=O)N(C)C)ccc1Cl  human ether-à-go-go-related gene (hERG) potassium channel (human, UniProt Q12809)       5.59
33  CCCOc1ccc(N2C(=O)CC(SC(=NCC)NCC)C2=O)cc1 (stereo not shown)  human ether-à-go-go-related gene (hERG) potassium channel (human, UniProt Q12809)       11.9
34  CC(C)CCN1CCN(CC#Cc2ccccc2)CC1CCO (stereo not shown)  human ether-à-go-go-related gene (hERG) potassium channel (human, UniProt Q12809)      -49.9
35  C(=C\c1ccccc1)/C=N/Nc1nc(N2CCOCC2)nc(N2CCOCC2)n1  human ether-à-go-go-related gene (hERG) potassium channel (human, UniProt Q12809)      -9.68
36  COc1cc(OC)cc(C(=O)NNC(=O)Cc2ccc(OC)c(S(=O)(=O)N3CCOCC3)c2)c1  human ether-à-go-go-related gene (hERG) potassium channel (human, UniProt Q12809)      -1.89
37    COc1ccc(C(=O)C[n+]2cccc(C)c2)cc1.[Br-]  human ether-à-go-go-related gene (hERG) potassium channel (human, UniProt Q12809)         13
38  Cc1cc(C)cc(C(=O)NCCn2cc(SCC(=O)N3CCOCC3)c3ccccc32)c1  human ether-à-go-go-related gene (hERG) potassium channel (human, UniProt Q12809)      -9.88
39  O=C(OC(c1ccccc1)c1nccc2ccccc12)c1cc([N+](=O)[O-])cc([N+](=O)[O-])c1 (stereo not shown)  human ether-à-go-go-related gene (hERG) potassium channel (human, UniProt Q12809)       22.9
40  Cc1ccc(S(=O)(=O)Cn2nnnc2C(CC(C)C)N2CCC(C(N)=O)CC2)cc1 (stereo not shown)  human ether-à-go-go-related gene (hERG) potassium channel (human, UniProt Q12809)      -12.2

Reference source: paper PMC4336329
